# ASSAY_METHOD_TEXT: yeast display, Sf9 membrane polyspecificity reagent, FACS + sequencing; frameworks hold sequencing errors
MEASURED_METRIC: polyreactivity (PSR sort gate)

QVQLEESGGGLVQAVGSLRLSCAASGFIFKRNAMGWYRQAPGKERELVAAITSRGGHTYYADSVKGRFTISRDNAKNTVYLQMNSLKAEDTAVYYCAATYASHDDYWGQGTQVTVSS    high polyreactivity
QVQRVESGGGIDQAGGSLRLSCAASGLTFSIYAIGWYRQAPGKERDLVDAISWSGGSTYYADSVKGRFTISRDNAKNTVYLQMISLKPEVTAVYYCAARVYRPWWRYDYWGQGTQVSVSS    high polyreactivity

Taken from the nanobody polyreactivity screen of Harvey et al. (2022).
